- Test system: MDS-L cells
- experiment.summary: MDS-L differentiation assay (GlyA positivity, 384-well FACS-based)
- experimental.context: human
measurement.kind: Maximal MDS-LGlyA fold induction (fold)

(1) C[C@H]1[C@H](N2CCS(=O)(=O)CC2)O[C@@H]2O[C@@]3(C)CC[C@H]4[C@H](C)CC[C@@H]1[C@@]24OO3
(2) CCO[C@H]1O[C@@H]2O[C@@]3(C)CC[C@H]4[C@H](C)CC[C@@H]([C@H]1C)[C@@]24OO3
Endpoint returns whichever of 1 and 2 has the numerically higher Maximal MDS-LGlyA fold induction. Write down the label attached to your selection.
1
(1: 6.84 fold, 2: 3.82 fold)

(P) C[C@H]1[C@H](OC(=O)CCC(=O)O)O[C@@H]2O[C@@]3(C)CC[C@H]4[C@H](C)CC[C@@H]1[C@@]24OO3 (stereo in doubt) [Artesunate]
(Q) c1cc([C@H]2CC[C@]3(CC2)OOC2(O3)[C@@H]3C[C@H]4C[C@H](C[C@@H]2C4)C3)ccc1OCCN1CCOCC1 (stereo partly shown)
Consider entries P and Q . Which has the numerically lower Maximal MDS-LGlyA fold induction? I would appreciate it if you answered with the label of your choice.
Q
(Q: 3.71 fold, P: 7.51 fold)
